biological target: Cathepsin D (Cat D) (Homo sapiens (Human)); assay: In vitro enzymatic Cathepsin D (Cat D) FRET assay; format: biochemical; settings: average IC50, cathepsin D enzyme assay; read-out: CatD IC50
Sequence (P07339 65-412, species assumed): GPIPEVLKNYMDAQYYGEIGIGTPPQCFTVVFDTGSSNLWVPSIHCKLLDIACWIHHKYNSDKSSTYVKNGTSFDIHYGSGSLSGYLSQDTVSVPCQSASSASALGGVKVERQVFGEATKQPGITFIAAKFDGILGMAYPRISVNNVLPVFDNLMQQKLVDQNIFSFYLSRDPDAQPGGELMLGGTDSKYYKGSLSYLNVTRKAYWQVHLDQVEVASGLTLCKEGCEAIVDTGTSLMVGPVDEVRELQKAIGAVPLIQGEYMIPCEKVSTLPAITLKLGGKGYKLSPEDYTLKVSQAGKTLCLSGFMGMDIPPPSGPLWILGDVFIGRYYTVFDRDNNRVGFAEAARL
pIC50: −log10 of the molar value.
measured_attribute: pIC50

- CC(C)n1cc(Cl)c(C(=O)Nc2cnc(F)c([C@]3(C)C[C@@H](C(F)(F)F)OC(N)=N3)c2)n1: < 3.40
- C#CCOc1cnc(C(=O)Nc2cc(F)c(F)c([C@]3(CF)C[C@@H](C(F)(F)F)OC(N)=N3)c2)cn1: < 3.40
- N#Cc1cnc2c(Nc3cc(F)c(F)c([C@]4(CF)C[C@@H](C(F)(F)F)OC(N)=N4)c3)nccc2c1: < 3.40
- NC1=N[C@](CF)(c2cc(NC(=O)c3ncc(C(F)F)cc3Cl)ccc2F)C[C@@H](C(F)(F)F)O1: < 3.40
- NC1=N[C@](CF)(c2cc(Nc3ncnc4sc(C(F)F)nc34)ccc2F)C[C@@H](C(F)(F)F)O1: < 3.40

Which pIC50 is reported for this molecule? NC1=N[C@](CF)(c2cc(Nc3nccc4cc(C#CC5CC5)cnc34)ccc2F)C[C@@H](C(F)(F)F)O1
< 3.40

Which pIC50 is reported for this molecule? C[C@@]1(c2cc(NC(=O)N3CCC(C(F)F)CC3)ccc2F)C[C@@H](C(F)(F)F)OC(N)=N1
< 4.83

Which pIC50 is reported for this molecule? C#CCOc1cnc(C(=O)Nc2cc(F)c(F)c([C@]3(C)C[C@@H](C(F)(F)F)OC(N)=N3)c2)cn1
< 3.40

====

system: Aβ40 in conditioned medium of cells stably expressing Amyloid Precursor Protein (APP); assay: In vitro BACE cell-based assay (Aβ40 sandwich ELISA); settings: Homo sapiens, HEK293, average IC50, HEK cell assay; read-out: HEK cell assay IC50
measured_attribute: pIC50
Keep it numeric: pIC50 is minus log10 of the concentration in mol/L.

Before answering, review these 3 worked examples.
* NC1=N[C@](CF)(c2cc(NC(=O)c3ncc(C(F)F)cc3Cl)ccc2F)C[C@@H](C(F)(F)F)O1 | 6.98
* N#Cc1cc(Nc2ccc(F)c([C@]3(CF)C[C@@H](C(F)(F)F)OC(N)=N3)c2)ccn1 | 5.15
* N#Cc1ccc(C(=O)Nc2ccc(F)c([C@]3(CF)C[C@@H](C(F)(F)F)OC(N)=N3)n2)nc1 | 7.26

Which pIC50 is reported for this compound? C[C@@]1(c2cc(Nc3nccc4cc(C#N)cnc34)cc(F)c2F)C[C@@H](C(F)(F)F)OC(N)=N1
7.44

Which pIC50 is reported for this compound? NC1=N[C@](CF)(c2cc(Nc3ccnc(Br)c3)ccc2F)C[C@@H](C(F)(F)F)O1
5.36

Which pIC50 is reported for this compound? NC1=N[C@](CF)(c2cc(NC(=O)c3ccc(Cl)cn3)cc(F)c2F)C[C@@H](C(F)(F)F)O1
7.06

====

Measured pIC50, listed per entry.
molecular target: UniProt P07339; experiment: In vitro enzymatic Cathepsin D (Cat D) FRET assay; type: biochemical; conditions: average; read-out: CatD IC50
pIC50: −log10 of the molar value.

Before answering, review these 2 worked examples.
* C[C@@]1(c2cc(NC(=O)c3cnc(OCC(F)(F)F)cn3)cc(F)c2F)C[C@@H](C(F)(F)F)OC(N)=N1 | < 3.40
* N#Cc1ccc(C#Cc2ccc(F)c([C@]3(CF)C[C@@H](C(F)(F)F)OC(N)=N3)c2)nc1 | < 3.40

Which pIC50 is reported for this compound? C[C@@]1(c2cc(NC(=O)c3ncc(C(F)(F)F)cc3Cl)cc(F)c2F)C[C@@H](C(F)(F)F)OC(N)=N1
< 3.40

Which pIC50 is reported for this compound? NC1=N[C@](CF)(c2cc(Oc3cc(-c4ccccc4)cc(Cl)n3)ccc2F)C[C@@H](C(F)(F)F)O1
< 3.88

Which pIC50 is reported for this compound? COc1cc(Cl)cnc1C(=O)Nc1cc(F)c(F)c([C@]2(C)C[C@@H](C(F)(F)F)OC(N)=N2)c1
< 3.40

Which pIC50 is reported for this compound? Cc1cc(OCC(F)(F)F)cnc1C(=O)Nc1cc(F)c(F)c([C@]2(C)C[C@@H](C(F)(F)F)OC(N)=N2)c1
< 3.40
